Source listed as ChEMBL document CHEMBL1138458.

experiment: Plasma concentration in overnight-fasted Sprague-Dawley rat at 20 mg/kg, ip after 1 hr; format: ADME, organism-based; set-up: dose 20 mg/kg, route intraperitoneal
Assay endpoint: concentration at 1 h (µM)
Give the quantity in µM, number only.

Report concentration at 1 h for CC(C)(C)Cn1c(-c2ccc(P(=O)(O)O)o2)nc2c(N)ncnc21 please.
38.5

---

Quick reference: F of the listed items.
system: Rattus norvegicus; experiment: Oral bioavailability in fasted Sprague-Dawley rat assessed as urinary excretion of phosphonic acid up to 300 mg/kg; type: ADME, organism-based, Urine; details: in vivo
Give a bare numeral; the unit % is implied.

CC(C)C(=O)OCOP(=O)(OCOC(=O)C(C)C)c1ccc(-c2nc3c(N)ncnc3n2CC(C)(C)C)o1	8.1
CC(C)(C)Cn1c(-c2ccc(P(=O)(OCOC(=O)C(C)(C)C)OCOC(=O)C(C)(C)C)o2)nc2c(N)ncnc21	5.3

# F lookup, item CC(C)(C)Cn1c(-c2ccc(P(=O)(O)O)o2)nc2c(N)ncnc21
1.6

---

biological target: Glycogen phosphorylase, muscle form (Oryctolagus cuniculus, UniProt P00489); assay: Inhibition of rabbit muscle glycogen phosphorylase
Sequence (P00489 whole entry): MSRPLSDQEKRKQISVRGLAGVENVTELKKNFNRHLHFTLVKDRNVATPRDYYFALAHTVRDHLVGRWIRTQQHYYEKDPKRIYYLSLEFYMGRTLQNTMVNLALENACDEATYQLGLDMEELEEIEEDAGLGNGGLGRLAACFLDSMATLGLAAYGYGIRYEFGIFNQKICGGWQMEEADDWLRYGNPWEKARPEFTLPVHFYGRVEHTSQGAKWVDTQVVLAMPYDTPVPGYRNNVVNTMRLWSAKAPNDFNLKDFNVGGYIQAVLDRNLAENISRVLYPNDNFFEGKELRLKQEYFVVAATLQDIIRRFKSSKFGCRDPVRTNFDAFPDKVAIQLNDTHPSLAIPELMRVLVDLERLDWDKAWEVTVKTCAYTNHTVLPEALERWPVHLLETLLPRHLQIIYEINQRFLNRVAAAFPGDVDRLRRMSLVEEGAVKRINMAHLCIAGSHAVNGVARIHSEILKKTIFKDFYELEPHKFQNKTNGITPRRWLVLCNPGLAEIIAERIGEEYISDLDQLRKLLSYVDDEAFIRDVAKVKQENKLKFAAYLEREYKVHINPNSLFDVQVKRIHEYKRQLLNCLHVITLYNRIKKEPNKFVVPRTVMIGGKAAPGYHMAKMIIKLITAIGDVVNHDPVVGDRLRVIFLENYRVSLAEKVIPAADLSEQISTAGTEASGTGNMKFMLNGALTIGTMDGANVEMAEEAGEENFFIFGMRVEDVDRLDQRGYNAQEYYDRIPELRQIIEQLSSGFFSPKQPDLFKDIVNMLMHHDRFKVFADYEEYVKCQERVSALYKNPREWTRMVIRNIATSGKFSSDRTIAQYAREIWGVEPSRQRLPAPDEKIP
Assay endpoint: EC50

# lookup: EC50 of CC(C)(C)Cn1c(-c2ccc(P(=O)(O)O)o2)nc2c(N)ncnc21
> 100 µM

---

target: Adenosine kinase (Homo sapiens, UniProt P55263); assay: Inhibition of human recombinant adenosine kinase expressed in Escherichia coli
Sequence (P55263 whole entry): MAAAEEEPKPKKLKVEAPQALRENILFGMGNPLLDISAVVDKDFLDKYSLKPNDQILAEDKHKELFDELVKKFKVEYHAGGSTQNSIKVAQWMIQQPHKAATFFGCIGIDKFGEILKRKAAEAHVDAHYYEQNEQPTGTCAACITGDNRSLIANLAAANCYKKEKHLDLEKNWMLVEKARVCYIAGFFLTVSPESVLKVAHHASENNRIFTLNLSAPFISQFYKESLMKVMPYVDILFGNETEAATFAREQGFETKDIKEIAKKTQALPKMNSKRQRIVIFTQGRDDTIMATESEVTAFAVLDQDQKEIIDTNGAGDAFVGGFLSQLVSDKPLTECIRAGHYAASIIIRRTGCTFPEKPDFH
Assay endpoint: IC50

Nc1ncnc2c1nc(-c1ccc(P(=O)(O)O)o1)n2CCc1ccccc1	> 100 µM

Proceeding to the next compound to report its IC50.
Quick one: IC50 of CC(C)(C)Cn1c(-c2ccc(P(=O)(O)O)o2)nc2c(N)ncnc21 ?
> 100 µM

---

system: Hepatocyte; assay: Inhibition of glucose production in rat primary hepatocytes treated for 15 to 30 mins prior to gluconeogenic substrate dihydroxyacetone addition; format: functional, cell-based
Assay endpoint: log10 EC50 (log10 of the value in µM)
Hey, these are logged values: log10 of EC50, µM being the unit before logging.

Return log10 EC50 measured with Hepatocyte given this compound: CC(C)(C)Cn1c(-c2ccc(P(=O)(O)O)o2)nc2c(N)ncnc21
1.95

Notebook entry, Hepatocyte assay: log10 EC50 of CC(C)C(=O)OCOP(=O)(OCOC(=O)C(C)C)c1ccc(-c2nc3c(N)ncnc3n2CC(C)(C)C)o1 = ?
0.48

Query the reported log10 EC50 for Hepatocyte; item: Nc1ncnc2c1nc(-c1ccc(P(=O)(O)O)o1)n2CCc1ccccc1
0.70

Under Hepatocyte: log10 EC50 value of Nc1ncnc2c1nc(-c1ccc(P3(=O)OCCSSCCO3)o1)n2CCc1ccccc1 ?
2.40

---

test: Inhibition of pig heart AMP deaminase; set-up: species or system Sus scrofa
Measured IC50 of individual entries
Please state the figure in µM; there is no need to write the unit.

Nc1ncnc2c1nc(-c1ccc(P(=O)(O)O)o1)n2CCc1ccccc1	6.7

Turning to the following compound.
Endpoint output: IC50 of CC(C)(C)Cn1c(-c2ccc(P(=O)(O)O)o2)nc2c(N)ncnc21 . Value?
390

---

List of log10 IC50 values.
biological target: Fructose-1,6-bisphosphatase 1 (Homo sapiens, UniProt P09467); assay: Inhibition of human liver FBPase expressed in Escherichia coli by spectrophotometry
Sequence (P09467 whole entry): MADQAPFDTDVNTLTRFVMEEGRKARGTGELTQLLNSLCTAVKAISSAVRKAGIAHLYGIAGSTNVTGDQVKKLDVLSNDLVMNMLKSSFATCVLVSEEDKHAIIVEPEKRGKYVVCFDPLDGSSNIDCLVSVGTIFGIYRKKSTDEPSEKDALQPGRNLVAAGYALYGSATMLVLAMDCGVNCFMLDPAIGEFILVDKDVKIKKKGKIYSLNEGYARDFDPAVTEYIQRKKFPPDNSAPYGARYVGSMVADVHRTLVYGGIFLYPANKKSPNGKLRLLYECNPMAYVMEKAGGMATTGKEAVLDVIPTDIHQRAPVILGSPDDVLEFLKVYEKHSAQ
A difference of one corresponds to tenfold IC50; all values are log10 with IC50 in µM.

Sample records with log10 IC50:
CC(C)Cn1c(-c2ccc(P(=O)(O)O)o2)nc2c(N)nc(S(C)(=O)=O)nc21	1.45
CC(n1c(-c2ccc(P(=O)(O)O)o2)nc2c(N)ncnc21)C(C)(C)C (stereo not given)	0.70
NC(=O)c1ncn([C@@H]2O[C@H](COP(=O)(O)O)[C@@H](O)[C@H]2O)c1N	1.08
Nc1ncnc2c1nc(NCCOP(=O)(O)O)n2[C@@H]1O[C@H](CO)[C@@H](O)[C@H]1O	2.15
C[C@H]1O[C@@H](n2c(NCCP(=O)(O)O)nc3c(N)ncnc32)[C@H](O)[C@@H]1O	2.00

Query compound follows.
Bench note: what log10 IC50 did CNc1ncnc2c1nc(-c1ccc(P(=O)(O)O)o1)n2CCc1ccccc1 show?
1.70
